// provenance: patent US20230133381A1

target: human DR5 (human); experiment: SPR (BIAcore X100), human DR5 on CM5 chip, IgG injected, 1:1 Langmuir model
Measured Kd of individual entries
Give just the number in pM; leave the unit off.

Guide cases for Kd, answers given:
{"BINDER": "DA34 (antibody, V domains shown) VH: AVTLDESGGGLQTPGGGLSLVCKGSGFTFSSFNMLWVRQAPGKGLEWVAGIGKSDRYTGYGSAVKGRATISRDDGQSTAYLQMNSLRAEDTAVYYCVKDAGSGCGSGGWTGACIDTWGHGTEVIVSS VL: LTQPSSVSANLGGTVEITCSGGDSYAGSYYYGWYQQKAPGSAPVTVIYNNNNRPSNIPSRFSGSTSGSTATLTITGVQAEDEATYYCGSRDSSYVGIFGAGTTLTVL", "Kd, pM": 94.2}
{"BINDER": "DA9 (antibody, V domains shown) VH: EVQLVESGGGLVQPGGSLRLSCAASGFTFSSFNMLWVRQAPGKGLEWVAGIGKSDRYTGYGSAVKGRFTISRDDSKSTLYLQMNSLRAEDTAVYYCVRDAGSGCGSGGWTGACIDTWGQGTLVTVSS VL: DIQMTQSPSSLSASVGDRVTITCSGGDSYAGSYYYGWYQQKPGKAPKTLIYNNNNRPSGVPSRFSGSRSGTDFTLTISSLQPEDFATYYCGSRDSSYVGIFGQGTKVEIK", "Kd, pM": 0.071}

Need Kd, item DA32 (antibody, V domains shown) VH: AVTLDESGGGLQTPGGGLSLVCKGSGFTFSSFNMLWVRQAPGKGLEWVAGIGKSDRYTGYGSAVKGRATISRDDGQSTVRLQLNNLRAEDTAVYYCVKDAGSGCGSGGWTGACIDTWGHGTEVIVSS VL: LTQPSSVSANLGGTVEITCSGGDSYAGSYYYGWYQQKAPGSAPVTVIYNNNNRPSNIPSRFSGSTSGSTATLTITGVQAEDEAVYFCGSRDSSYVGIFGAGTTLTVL
75.1
